Values compiled from paper PMC8343220.

MEASUREMENT TARGET: human α1A‐adrenoceptor (Homo sapiens)
Construct: expressed in transfected cells; host or cells: CHO-K1
Sequence (P35348 whole entry): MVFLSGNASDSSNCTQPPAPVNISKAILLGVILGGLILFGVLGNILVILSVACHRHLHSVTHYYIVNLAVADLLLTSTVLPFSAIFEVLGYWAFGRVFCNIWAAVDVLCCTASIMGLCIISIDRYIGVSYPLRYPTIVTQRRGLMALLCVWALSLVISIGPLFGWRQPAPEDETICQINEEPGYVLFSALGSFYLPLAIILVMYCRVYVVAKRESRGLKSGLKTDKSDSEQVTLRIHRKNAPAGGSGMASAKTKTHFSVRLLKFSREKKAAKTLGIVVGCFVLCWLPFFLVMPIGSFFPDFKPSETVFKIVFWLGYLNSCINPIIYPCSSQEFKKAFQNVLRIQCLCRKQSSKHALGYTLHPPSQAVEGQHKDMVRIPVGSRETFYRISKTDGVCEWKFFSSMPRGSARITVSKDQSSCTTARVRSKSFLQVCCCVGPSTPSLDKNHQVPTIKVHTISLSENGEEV
ASSAY NOTES: Intracellular free calcium mobilization, CHO‐α1A cells
Assay type: cell-based
READOUT NAME: Intracellular calcium release % ionomycin (%)
One number for each entry, in %.

Study these solved cases before continuing.
[
  {
    "MOLECULE": "Nc1cc(Cl)c(N=C2NCCN2)c(Cl)c1 [para‐amino‐clonidine]",
    "ASSAY VALUE": 52.0
  },
  {
    "MOLECULE": "CCC1(C2=NCCN2)Cc2ccccc2O1 (centres unmarked) [Eforaxan]",
    "ASSAY VALUE": 45.0
  },
  {
    "MOLECULE": "Cc1cccc(C)c1N=C1NCCCS1 [Xylazine]",
    "ASSAY VALUE": 45.1
  },
  {
    "MOLECULE": "CN[C@@H](C)[C@H](O)c1ccccc1 [Ephedrine]",
    "ASSAY VALUE": 43.1
  }
]

Give Intracellular calcium release % ionomycin for each of the items listed below.
1. Brc1c(NC2=NCCN2)ccc2nccnc12 [UK14304]
2. Clc1cccc(Cl)c1N=C1NCCN1 [Clonidine]

RESULT:
1: 45.6; 2: 51.6

----------
MEASUREMENT TARGET: human α1D‐adrenoceptor (full length) (Homo sapiens, UniProt P25100)
Construct: human α1D‐adrenoceptor (full length) were used; expressed in transfected cells; host or cells: CHO-K1
Sequence (P25100 whole entry): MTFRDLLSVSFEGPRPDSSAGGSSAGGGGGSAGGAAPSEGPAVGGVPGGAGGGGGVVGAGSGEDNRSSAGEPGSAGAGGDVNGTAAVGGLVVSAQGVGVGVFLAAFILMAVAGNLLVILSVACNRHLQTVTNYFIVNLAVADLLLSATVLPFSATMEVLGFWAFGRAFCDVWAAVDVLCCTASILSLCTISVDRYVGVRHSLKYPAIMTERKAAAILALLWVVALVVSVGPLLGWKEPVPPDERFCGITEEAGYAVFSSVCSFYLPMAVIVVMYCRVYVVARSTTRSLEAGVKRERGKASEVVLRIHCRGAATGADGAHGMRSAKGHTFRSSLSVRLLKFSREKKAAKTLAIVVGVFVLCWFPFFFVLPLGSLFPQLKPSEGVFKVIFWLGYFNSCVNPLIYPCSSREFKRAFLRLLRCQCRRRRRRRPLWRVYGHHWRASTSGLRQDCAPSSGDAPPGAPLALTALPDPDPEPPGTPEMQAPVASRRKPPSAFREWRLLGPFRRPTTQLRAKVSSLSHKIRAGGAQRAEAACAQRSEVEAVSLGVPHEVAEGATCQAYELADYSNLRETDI
ASSAY NOTES: ERK1/2‐phosphorylation (Surefire Alphascreen), CHO‐α1D cells
Type: cell-based
READOUT NAME: ERK1/2‐phosphorylation % PDBu

Study these solved cases before continuing.
[
  {
    "COMPOUND": "Nc1cc(Cl)c(N=C2NCCN2)c(Cl)c1 [para‐amino‐clonidine]",
    "ERK1/2‐phosphorylation % PDBu": "No response"
  },
  {
    "COMPOUND": "Brc1c(NC2=NCCN2)ccc2nccnc12 [Brimonidine]",
    "ERK1/2‐phosphorylation % PDBu": "No response"
  },
  {
    "COMPOUND": "Cc1cccc(C)c1N=C1NCCCS1 [Xylazine]",
    "ERK1/2‐phosphorylation % PDBu": "No response"
  },
  {
    "COMPOUND": "Cc1ccc(/N=C/N(C)/C=N/c2ccc(C)cc2C)c(C)c1 [Amitraz]",
    "ERK1/2‐phosphorylation % PDBu": "No response"
  },
  {
    "COMPOUND": "Brc1c(NC2=NCCN2)ccc2nccnc12 [UK14304]",
    "ERK1/2‐phosphorylation % PDBu": "No response"
  }
]

# ---- query compound ----
QUERY: For the compound shown here, C1COC(NC(C2CC2)C2CC2)=N1 [Rilmenidine] , give the reported ERK1/2‐phosphorylation % PDBu.
RESULT: No response

----------
Record form. Attribute: pKd. Fill in for each entry.
MEASUREMENT TARGET: human α1B‐adrenoceptor (Homo sapiens, UniProt P35368)
Construct: expressed in transfected cells; host or cells: CHO-K1
Sequence (P35368 whole entry): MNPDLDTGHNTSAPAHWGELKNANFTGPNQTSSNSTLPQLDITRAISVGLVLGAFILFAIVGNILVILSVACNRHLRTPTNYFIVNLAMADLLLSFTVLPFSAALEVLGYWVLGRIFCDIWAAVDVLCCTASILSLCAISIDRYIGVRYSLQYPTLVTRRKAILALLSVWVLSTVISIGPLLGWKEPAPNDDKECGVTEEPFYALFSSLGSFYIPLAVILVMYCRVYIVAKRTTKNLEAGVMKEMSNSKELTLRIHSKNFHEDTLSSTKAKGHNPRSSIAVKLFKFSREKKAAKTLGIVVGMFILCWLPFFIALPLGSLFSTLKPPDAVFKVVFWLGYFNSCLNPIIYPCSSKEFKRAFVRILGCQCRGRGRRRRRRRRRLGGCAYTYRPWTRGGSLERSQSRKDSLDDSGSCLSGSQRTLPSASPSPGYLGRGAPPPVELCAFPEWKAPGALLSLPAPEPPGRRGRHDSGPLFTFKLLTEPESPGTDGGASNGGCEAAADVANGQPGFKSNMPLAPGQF
ASSAY NOTES: ^3H‐prazosin whole‐cell radioligand binding, CHO‐α1B cells
EXPERIMENTAL PARAMETERS: Log KD α1B, ^3H‐prazosin whole cell binding, CHO‐α1B cells; given as log KD (negative); mean ± SEM
Numbers only, as −log10 of the molar value.

Study these solved cases before continuing.
[
  {
    "COMPOUND": "c1ccc2c(c1)CCCC2C1=NCCN1 (stereo not drawn) [Tetrahydrozoline]",
    "MEASUREMENT TARGET": "human α1B‐adrenoceptor (Homo sapiens, UniProt P35368)",
    "ASSAY VALUE": 5.22
  },
  {
    "COMPOUND": "Brc1c(NC2=NCCN2)ccc2nccnc12 [Brimonidine]",
    "MEASUREMENT TARGET": "human α1B‐adrenoceptor (Homo sapiens, UniProt P35368)",
    "ASSAY VALUE": 4.68
  }
]

Give pKd for each of the items listed below.
1. c1ccc2c(CC3=NCCN3)cccc2c1 [Naphazoline]
2. CC(CCc1ccc(O)cc1)NCCc1ccc(O)c(O)c1 (stereo not drawn) [Dobutamine]

RESULT:
[5.74, 5.44]

Give pKd for each of the items listed below.
1. Brc1c(NC2=NCCN2)ccc2nccnc12 [UK14304]
2. Clc1ccc2nsnc2c1NC1=NCCN1 [Tizanidine]

RESULT:
1. 4.89
2. 4.35
